Test system: endogenous NAMPT in U2OS cells
Assay: Cellular NAD+ modulation assay (NAD/NADH-Glo, U2OS cells)
Format: cell-based
Conditions: Homo sapiens, 24 hours incubation, cellular NAD+
Attribute Measured: EC50

Known results for molecules:
1. Cn1c(CC2c3ccccc3C(=O)N2Cc2ccc3[nH]nnc3c2)c(Cl)ccc1=O (stereo not shown)
< 500 nM
2. Cn1ncc(Cl)c1CC1c2cc(OC(F)F)ccc2C(=O)N1Cc1ccc2[nH]nnc2c1 (stereo not shown)
< 500 nM
3. Cc1ccnc(C(N)=O)c1CC1c2ccccc2C(=O)N1Cc1ccc2[nH]nnc2c1 (stereo not shown)
500 to 5000 nM
4. COc1ccc(CN2C(=O)c3ccc(C4CC4)cc3C2Cc2c(Cl)cnn2C)cc1 (stereo not shown)
500 to 5000 nM
5. Cn1ncc(Cl)c1CC1c2ccccc2C(=O)N1CC#Cc1c[nH]nc1Cl (stereo not shown)
< 500 nM
6. O=C1c2ccccc2C(Cc2nn(C3CNC3)cc2Cl)N1Cc1ccc2[nH]nnc2c1 (stereo not shown)
500 to 5000 nM
7. Cn1cnc(Cl)c1CC1c2ccccc2C(=O)N1CC1CC2(CNC(=O)O2)C1 (stereo not shown)
500 to 5000 nM
8. Cn1ncc(Cl)c1CC1c2ccccc2C(=O)N1CC1CC2(CNC(=S)O2)C1 (stereo not shown)
500 to 5000 nM

What measured EC50 goes with COc1ccc(CN2C(=O)c3ccccc3C2Cc2c(Cl)c(Cl)nn2C)cc1 (stereo not shown) ?
< 500 nM

What measured EC50 goes with Cn1c(=O)oc2cc(CN3C(=O)c4ccccc4C3Cc3c(Br)cccc3C#N)ccc21 (stereo not shown) ?
< 500 nM

----------
Molecular target: human enzyme NAMPT (full length) (Homo sapiens)
Construct: human enzyme NAMPT (full length)
Sequence (P43490 whole entry): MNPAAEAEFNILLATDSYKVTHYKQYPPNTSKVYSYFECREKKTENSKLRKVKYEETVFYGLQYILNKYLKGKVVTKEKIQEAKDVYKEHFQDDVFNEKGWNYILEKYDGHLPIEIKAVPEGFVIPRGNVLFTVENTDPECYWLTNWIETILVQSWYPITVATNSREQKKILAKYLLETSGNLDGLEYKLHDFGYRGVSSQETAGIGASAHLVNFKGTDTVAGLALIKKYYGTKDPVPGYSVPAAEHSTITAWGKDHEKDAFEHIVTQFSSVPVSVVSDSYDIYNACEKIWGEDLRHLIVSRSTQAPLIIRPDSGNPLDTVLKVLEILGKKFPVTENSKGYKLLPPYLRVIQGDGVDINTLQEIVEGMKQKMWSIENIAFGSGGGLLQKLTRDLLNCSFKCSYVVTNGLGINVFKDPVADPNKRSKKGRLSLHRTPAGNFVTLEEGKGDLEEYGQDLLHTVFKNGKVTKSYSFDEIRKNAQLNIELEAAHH
Assay: NMN fluorescence biochemical assay (stimulation of NMN synthesis by NAMPT)
Details: fold change of maximal activation compared to DMSO
Attribute Measured: Enzymatic Emax

1. Cn1c(CC2c3ccccc3C(=O)N2Cc2ccc3[nH]nnc3c2)c(Cl)ccc1=O (centres unmarked)
B (3≥B>2)
2. Cn1ncc(Cl)c1CC1c2cc(C3COC3)ccc2C(=O)N1Cc1ccc2[nH]nnc2c1 (centres unmarked)
B (3≥B>2)
3. COc1ccccc1CC1c2ccccc2C(=O)N1Cc1ccc2[nH]c(=O)oc2c1 (centres unmarked)
B (3≥B>2)

Reference for the values: patent US20260078130A1
